# System: SHI-1
# assay-info: cell viability (% survival relative to DMSO control, bortezomib = 0%); higher = less cytotoxic
# test-conditions: 10 nM; 72 h
Below: a set of entries, each annotated with reported cell viability.
Respond with the bare value in %.

Illustrative cases are given below, each with its answer.
NS(=O)(=O)c1ccc([N+](=O)[O-])cc1 [4-Nitrobenzenesulfonamide]    90.7
Cc1ccccc1C(C(=O)NC1CCCCC1)N(C(=O)Cn1ccnc1C)c1cccc(F)c1 (configuration not stated)    92.7
O=C(O)C1=CC(=C(c2ccc(O)c(C(=O)O)c2)c2ccc(O)c(C(=O)O)c2)C=CC1=O    91.8
COc1ccc(CNC(=O)Nc2ncc([N+](=O)[O-])s2)cc1    101
CCN(CC)CCCC(C)Nc1ccnc2cc(Cl)ccc12 (configuration not stated)    106
CC(C)c1nc(CN(C)C(=O)N[C@H](C(=O)N[C@@H](Cc2ccccc2)C[C@H](O)[C@H](Cc2ccccc2)NC(=O)OCc2cncs2)C(C)C)cs1    101

Now look at this entry.
[in] # returns recorded cell viability (system: SHI-1) for CN(C)c1cc(NC(=O)CNC(C)(C)C)c(O)c2c1C[C@H]1C[C@H]3[C@H](N(C)C)C(=O)C(C(N)=O)C(=O)[C@@]3(O)C(=O)C1C2=O (some centres not stated)
[out] 97.9

----------
# Test system: LAMA-84
# assay-info: cell viability (% survival relative to DMSO control, bortezomib = 0%); higher = less cytotoxic
# test-conditions: 100 nM; 72 h
Quick list: cell viability per entry.
Respond with the bare value in %.

CC(C)c1nc(CN(C)C(=O)N[C@H](C(=O)N[C@@H](Cc2ccccc2)C[C@H](O)[C@H](Cc2ccccc2)NC(=O)OCc2cncs2)C(C)C)cs1 [Ritonavir]    102
COC(=O)[C@]12CCC(C)(C)C[C@H]1[C@H]1C(=O)C=C3[C@@]4(C)C=C(C#N)C(=O)C(C)(C)[C@@H]4CC[C@@]3(C)[C@]1(C)CC2 [Bardoxolone methyl]    107
O=C(O)c1cc(Cl)cc(Cl)c1O [3,5-Dichlorosalicylic Acid]    97.5

Note: attention shifts to another entry.
[in] So what cell viability did CCN(CC)CCCC(C)Nc1ccnc2cc(Cl)ccc12 (centres undefined) [Chloroquine] get with LAMA-84?
[out] 101

----------
# Test system: KU-812
# assay-info: cell viability (% survival relative to DMSO control, bortezomib = 0%); higher = less cytotoxic
# test-conditions: 10000 nM; 72 h
assay-readout: cell viability (%)
Just the number in %, nothing appended.

Cc1cn([C@H]2C[C@H](O)[C@@H](COP(=O)(O)OP(=O)(O)O)O2)c(=O)[nH]c1=O [Thymidine diphosphate]    102
COc1ccc(-c2ccccc2)cc1NS(=O)(=O)c1cc(Cl)cc(Cl)c1O    104
CCCCN1C[C@H](O)[C@@H](O)[C@H](O)[C@H]1CO [Miglustat]    86.7

[in] Returns the measured cell viability for the input compound. Input: `O=C(C1CC1)N1CC[C@@H](C=C2NNC(=O)N2c2ccc(-c3ccc4occc4c3)cc2)C1`
[out] 67.1

[in] Request: N/C(=N\CCCC(N)C(=O)O)N[N+](=O)[O-] [L-NNA]
[out] 91.8

[in] And O[C@H]1[C@H]2[C@H](O)CCCN2C[C@H]1O [Swainsonine] ?
[out] 109
